# protocolSummary: RP, Phenomenex Kinetex C18, 150 × 2.1 mm, 1.7 µm, 30 °C, 0.3 mL/min, estimated dead time 1.1 min; A: water + 0.1% formic acid, pH 3; B: acetonitrile + 0.1% formic acid, pH 3; gradient (min/%B) 0/2 14/100 17/100 17.1/2 25/2
# conditionContext: stereoisomer not certain
I'd appreciate it if you could supply LC retention time values for the items below.
State the answer as a number, implicitly in min.

Give the measured LC retention time of Cc1cn(C2CC(O)C(COP(=O)(O)OP(=O)(O)OC3OC(CO)C(O)C(O)C3O)O2)c(=O)[nH]c1=O [DTDP-D-GLUCOSE] .
1.52

Give the measured LC retention time of Nc1ccccc1O [2-AMINOPHENOL] .
1.52

Need LC retention time, item c1ncc2[nH]cnc2n1 [PURINE]
1.92

Dear colleague, I am looking for the recorded LC retention time of the following compound: Cn1cnc2c(ncn2C2OC(CO)C(O)C2O)c1=N (stereo unspecified) [1-METHYLADENOSINE]
3.16

What value of LC retention time has been recorded for this entry: O=c1[nH]cnc2c1ncn2C1OC(CO)C(O)C1O (stereo unspecified) [INOSINE]
2.64

Entry Cn1c(=O)[nH]c2ncn(C)c2c1=O [PARAXANTHINE] has what LC retention time?
2.27

Which LC retention time is reported for this compound? Oc1ccc(O)cc1 [HYDROQUINONE]
4.46

Find the recorded LC retention time belonging to Cc1ncc(CO)c(CO)c1O [PYRIDOXINE] and report it.
1.65

Can you share its LC retention time? I mean this compound: Cc1ncc(CO)c(C(=O)O)c1O [4-PYRIDOXATE]
2.73

Entry NC(=O)NCCC(=O)O [UREIDOPROPIONATE] : reported LC retention time = ?
1.4

Reported LC retention time, compound Nc1ncnc2c1ncn2C1OC(CSCCC([NH3+])C(=O)[O-])C(O)C1O (stereo unspecified) [S-ADENOSYLHOMOCYSTEINE] : ____
1.97

====

# protocolSummary: HILIC, Merck SeQuant ZIC-pHILIC, 150 × 2.1 mm, 5 µm, 40 °C, 0.3 mL/min, estimated dead time 1.1 min; A: acetonitrile; B: water + 2.8 mM ammonium formate, pH 9; gradient (min/%B) 0/5 1/5 10/51 13/51 13.1/5 20/5
# conditionContext: stereoisomer not certain
Answer F if LC retention time is under 6 min, and T if it is 6 min or more.

Is LC retention time at least 6 min? Consider NC(CS)C(=O)NCC(=O)O (stereo unspecified) [CYS-GLY]
T

# bool: LC retention time of O=c1cc[nH]c(=O)[nH]1 [URACIL] >= 6 min
F

Would you say CNC(CCC(=O)O)C(=O)O (stereo unspecified) [N-METHYLGLUTAMATE] shows LC retention time at minimum 6 min?
T

Confirm if LC retention time reported for the compound O=C(O)C=C(CC(=O)O)C(=O)O [TRANS-ACONITATE] is 6 min or above.
T

====

Give LC retention time for every item shown.
# protocolSummary: RP, Phenomenex Kinetex C18, 150 × 2.1 mm, 1.7 µm, 30 °C, 0.3 mL/min, estimated dead time 1.1 min; A: water + 0.1% formic acid, pH 3; B: acetonitrile + 0.1% formic acid, pH 3; gradient (min/%B) 0/2 14/100 17/100 17.1/2 25/2
# conditionContext: stereoisomer not certain
Numeric answer only, unit min assumed.

LC retention time for CSCCC(NC(C)=O)C(=O)O (stereo not drawn) ?
4.22

So what does the record say about LC retention time for CC(=O)NCCc1c[nH]c2ccc(O)cc12 ?
4.83

Tell me the measured LC retention time of CCCCCCCCCCCCCC(=O)O [MYRISTATE] , please.
11.6

Look up LC retention time for this compound: O=CCc1c[nH]c2ccccc12
4.83

Report LC retention time for CC(=O)NC(Cc1c[nH]c2ccccc12)C(=O)O (stereo not drawn) please.
5.91

Quick one: LC retention time of Nc1nc2c(ncn2C2CC(O)C(CO)O2)c(=O)[nH]1 (stereo not drawn) ?
2.97

Sample CC12CCC(=O)C=C1CCC1C2C(O)CC2(C)C1CCC2(O)C(=O)CO (stereo not drawn) — what was its LC retention time?
7.18

Could you share which LC retention time value was measured for CC12CCC3c4ccc(O)cc4CCC3C1CCC2O (stereo not drawn) ?
9.34

Quick one: LC retention time of NC(=O)[C@@H](N)Cc1c[nH]c2ccccc12 [L-TRYPTOPHANAMIDE] ?
3.82

For CC12CCC(=O)C=C1CCC1C2CCC2(C)C1CCC2(O)C(=O)CO (stereo not drawn) [CORTEXOLONE] , what is its reported LC retention time?
8.31

Returns the measured LC retention time for the input compound. Input: CC(C)=CCCC(C)C1CCC2C3CC=C4CC(O)CCC4(C)C3CCC12C (stereo not drawn)
15.4

Given the entry O=C([O-])Cc1c[nH]c2ccccc12 [INDOLE-3-ACETATE] , report its measured LC retention time.
6.54

Quick one: LC retention time of Cc1ncc(CO)c(CO)c1O ?
1.81
